ASSAYED_SYSTEM: CB1 (Homo sapiens, UniProt P21554)
Construct: expressed in transfected cells; host or cells: HEK293T cells, transient calcium phosphate transfection, pcDNA3.1 vector; membrane preparation
Sequence (P21554 whole entry): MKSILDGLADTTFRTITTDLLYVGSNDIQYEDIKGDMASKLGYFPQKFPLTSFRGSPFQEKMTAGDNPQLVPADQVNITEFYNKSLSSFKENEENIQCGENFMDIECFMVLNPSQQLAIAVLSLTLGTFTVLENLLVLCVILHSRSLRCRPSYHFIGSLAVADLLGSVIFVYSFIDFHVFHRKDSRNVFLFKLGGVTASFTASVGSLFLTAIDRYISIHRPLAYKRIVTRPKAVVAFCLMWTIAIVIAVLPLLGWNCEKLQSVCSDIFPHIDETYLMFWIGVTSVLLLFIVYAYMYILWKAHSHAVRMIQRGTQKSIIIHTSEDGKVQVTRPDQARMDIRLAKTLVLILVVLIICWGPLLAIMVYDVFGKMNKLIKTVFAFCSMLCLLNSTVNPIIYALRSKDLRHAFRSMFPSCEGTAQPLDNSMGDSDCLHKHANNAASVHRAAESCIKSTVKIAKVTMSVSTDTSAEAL
METHOD_SUMMARY: biochemical
Assay type: binding
EXPERIMENTAL_CONTEXT: membranes of HEK293T cells expressing CB1; tracer [3H]CP55,940 0.5 nM; 30°C, 60 min
Experimental: Human embryonic kidney 293T (HEK293T) cells were grown and seeded in Dulbecco's modified Eagle's medium with 3.5 mg/mL glucose and 10% fetal bovine serum at 37°C and 5% carbon dioxide. To express the CB1 receptors, HEK293T cells were seeded at 1,000,000 cells/100-mm plate. […] Approximately 3 μg of membrane preparation expressing CB1 was incubated with nine concentrations of allosteric modulator (1 nM-10 μM). […] Liquid scintillation counting was used to measure radioactivity. […]
OBSERVED_PROPERTY: KB (equilibrium dissociation constant)

• O=C(NCCc1ccc(N2CCCCC2)cc1)c1cc2cc(Cl)ncc2[nH]1 = modest binding affinity
• CN(C)c1ccc(CCNC(=O)c2cc3cc(Cl)ncc3[nH]2)cc1 = modest binding affinity

====

Kindly supply the reported Kb values for the records listed here.
ASSAYED_SYSTEM: CB1 (Homo sapiens, UniProt P21554)
Construct: expressed in transfected cells; host or cells: HEK293T cells, transient calcium phosphate transfection, pcDNA3.1 vector; membrane preparation
METHOD_SUMMARY: biochemical
Type: binding
EXPERIMENTAL_CONTEXT: membranes of HEK293T cells expressing CB1; tracer [3H]CP55,940 0.5 nM; 30°C, 60 min; read-out: KB (equilibrium dissociation constant)
The response must be a number in µM with no trailing unit.

Which Kb is listed for O=C(NCCc1ccc(N2CCCCC2)cc1)c1cc2cc(Cl)ncc2[nH]1 ?
5.6

Param item: CN(C)c1ccc(CCNC(=O)c2cc3cc(Cl)ncc3[nH]2)cc1
2.4

Param item: CN(C)c1ccc(CCNC(=O)c2cc3cc(Cl)ccc3[nH]2)cc1
0.3
